test system: PPARg DBDmut:RXRa IVT, anti-PPARg (DBD mutation: PPARg1 K132A/R137A, NR concentration 270 nM, RXRa partner concentration 90 nM); assay: PBM binding z-score (relative to random genomic background probes); higher = stronger binding; sequences stand for … in GC…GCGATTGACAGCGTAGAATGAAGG
Collected PBM binding z-score values appear next to each entry.

Use these answered entries as a reference point.
## Input What does the record list as PBM binding z-score for `ATCTGTAGGTAAAGATAGTTCAGTGAATGCAAAT` ?
## Output 0.849

## Input What does the record list as PBM binding z-score for `TCATATAAGTAAATGCTAGGTGAAAGTCCGATCT` ?
## Output 0.642

## Input What does the record list as PBM binding z-score for `ATATCTAGGTTACATCCGGGTCATTCAGGCTATG` ?
## Output 3.31

## Input What does the record list as PBM binding z-score for `TCAGACAGGTGACGGTAACTCAGGTACGCAGTCG` ?
## Output 0.209

Turning to the following sequence.
## Input What does the record list as PBM binding z-score for `AGACAAAGTTCACTAGGTAACGTAAGATTCAGCT` ?
## Output 1.01
